assayed-system: T1, monkey GFRα3 expressed with a C-terminal myc-myc-hexahistidine tag (monkey (Mf), UniProt O60609 32-374 (human entry), limits assumed)
T1 construct: also called MfGFRα3-mmh; MfGFRα3-mmH
T1 chain: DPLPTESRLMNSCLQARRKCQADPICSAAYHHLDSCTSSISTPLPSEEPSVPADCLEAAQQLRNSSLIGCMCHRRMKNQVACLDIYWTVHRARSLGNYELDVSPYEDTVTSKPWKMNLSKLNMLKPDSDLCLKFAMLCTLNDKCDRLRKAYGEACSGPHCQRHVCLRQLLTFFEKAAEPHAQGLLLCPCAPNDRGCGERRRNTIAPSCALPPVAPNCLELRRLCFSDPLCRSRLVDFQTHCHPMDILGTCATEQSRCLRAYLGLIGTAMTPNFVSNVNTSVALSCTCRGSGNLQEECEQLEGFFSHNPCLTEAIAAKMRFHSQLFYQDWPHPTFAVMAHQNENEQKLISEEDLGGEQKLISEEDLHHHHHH
assay-method-text: SPR, Ab captured, 25C
Reported Kd values follow for various binders
# output: bare number, implied unit nM

As a guide, the following entries are already answered.
H1M2236N (antibody, V domains shown, chimeric, human variable and mouse constant domains (H1M)) VH: EVQLLESGGNLVQPGGSLRLSCAASGFTFSSYAMTWVRQAPGKGLEWVSTISGSGTSTYYADSVKGRFTISRDNSRDTVFLQMNSLRAEDTAVYYCSKPSALRFLHWLCMDVWGQGTLVTVSS VL: DIQMTQSPSSLSAFVGDRVTITCRASQDIRNYLDWFQQKPGKAPKSLIYAASNLQSGVPSRFGGSGSGTDFTLTINSLQPEDFVTYYCQQYNSYPPTFGGGTKVEIK; 0.97
H4H2357S (antibody, human IgG4, V domains shown, human IgG4 Fc (H4H)) VH: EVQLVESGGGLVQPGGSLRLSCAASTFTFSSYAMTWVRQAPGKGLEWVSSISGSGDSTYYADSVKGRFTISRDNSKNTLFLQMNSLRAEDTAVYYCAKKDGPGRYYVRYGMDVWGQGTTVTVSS VL: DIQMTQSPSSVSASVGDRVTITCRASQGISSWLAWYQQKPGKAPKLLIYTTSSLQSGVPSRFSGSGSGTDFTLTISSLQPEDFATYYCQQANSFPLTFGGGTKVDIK; 2.26
H4H2294S (antibody, human IgG4, V domains shown, human IgG4 Fc (H4H)) VH: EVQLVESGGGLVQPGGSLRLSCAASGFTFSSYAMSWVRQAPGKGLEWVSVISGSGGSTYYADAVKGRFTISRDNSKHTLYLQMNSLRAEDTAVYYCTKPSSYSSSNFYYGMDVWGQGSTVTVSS VL: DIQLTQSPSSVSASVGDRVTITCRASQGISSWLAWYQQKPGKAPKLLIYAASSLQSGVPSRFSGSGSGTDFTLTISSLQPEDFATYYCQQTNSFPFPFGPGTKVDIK; 0.627

Query H4H2350P (antibody, human IgG4, V domains shown, human IgG4 Fc (H4H)) VH: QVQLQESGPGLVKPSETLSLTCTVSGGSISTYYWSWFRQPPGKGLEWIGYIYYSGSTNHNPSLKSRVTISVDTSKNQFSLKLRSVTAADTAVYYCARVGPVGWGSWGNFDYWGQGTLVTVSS VL: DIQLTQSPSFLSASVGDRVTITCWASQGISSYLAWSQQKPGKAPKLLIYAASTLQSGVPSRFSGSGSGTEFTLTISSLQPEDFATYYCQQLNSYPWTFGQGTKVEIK yields Kd of 1.71

Query H4H2354S (antibody, human IgG4, V domains shown, human IgG4 Fc (H4H); also called H4H2354S-1) VH: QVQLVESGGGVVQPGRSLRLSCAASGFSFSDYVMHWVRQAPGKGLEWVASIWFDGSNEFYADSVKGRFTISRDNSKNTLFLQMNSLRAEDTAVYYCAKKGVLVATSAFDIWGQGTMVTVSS VL: DIQLTQSPSSLSASVGDRVTITCRASQSINNYLNWYHQKPGKAPKLLIYAASSLQSGVPSRFSGSGSGTDYTLTISSLQPEDFGNYYCQQSYRTSMYTFGQGTKVEIK yields Kd of 0.574

Ref: patent US20140056903A1
